Biological target: T1, RHPN1, Q8TCX5
T1 sequence (Q8TCX5 508-602, limits assumed, looked up): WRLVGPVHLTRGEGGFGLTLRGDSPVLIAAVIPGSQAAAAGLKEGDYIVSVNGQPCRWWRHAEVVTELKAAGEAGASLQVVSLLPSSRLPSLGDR
Test: holdup assay
Set-up: key: below the threshold = too weak to quantify, mostly under pKd 3.1 to 4
Details: plain residues with an end cap or a label only (N-terminal biotin on a linker: ado-ado)
recorded_metric: pKd
Give only the figure.

Tell me measured pKd for QLKSGRDSTV [TMEM178A, Q8NBL3] please. 4.06

Tell me measured pKd for IGHEDLETAV [DGKI, O75912] please. 4.77

Values were extracted from paper PMC9482650.
